# System: LHPP gene
# assay-comment: High-throughput screening of saRNAs targeting LHPP promoter: LHPP mRNA by one-step RT-qPCR in Huh7 cells
# Assay type: cell-based, human
# test-parameters: 10 nM saRNA, 72 hours, relative to control (Mock)
d = 2'-deoxy (DNA); r = 2'-OH (RNA)
Consider the following substances and their measured Fold of changes in relative LHPP mRNA expression level (log2) readings.
measured-metric: Fold of changes in relative LHPP mRNA expression level (log2)

| substance | target | recorded-value |
| --- | --- | --- |
| RAG7-837: saRNA duplex; sense AGGGGCCAUUGAGGAAACUTT (SEQ ID NO: 109), antisense AGUUUCCUCAAUGGCCCCUTT (SEQ ID NO: 273) (sugars from the 5' end r19 d2, backbone not given here) | LHPP gene | 0.26 |
| RAG7-181: saRNA duplex; sense CUCAAUUUGCCUUUGACCUTT (SEQ ID NO: 97), antisense AGGUCAAAGGCAAAUUGAGTT (SEQ ID NO: 261) (sugars from the 5' end r19 d2, backbone not given here) | LHPP gene | 0.29 |
| RAG7-780: saRNA duplex; sense AAUGUAGCAUCGAGUGGUATT (SEQ ID NO: 142), antisense UACCACUCGAUGCUACAUUTT (SEQ ID NO: 306) (sugars from the 5' end r19 d2, backbone not given here) | LHPP gene | 0.19 |
| RAG7-189: saRNA duplex; sense CUUCUUGUCUCAAUUUGCCTT (SEQ ID NO: 35), antisense GGCAAAUUGAGACAAGAAGTT (SEQ ID NO: 199) (sugars from the 5' end r19 d2, backbone not given here) | LHPP gene | 0.56 |

----------
# Test system: LHPP gene
# assay-comment: High-throughput screening of saRNAs targeting LHPP promoter: LHPP mRNA by one-step RT-qPCR in Huh7 cells
# Format: cell-based, human
# test-parameters: 10 nM saRNA, 72 hours, relative to control (Mock)
d = 2'-deoxy (DNA); r = 2'-OH (RNA)
measured-metric: Fold of changes in relative LHPP mRNA expression level (fold)

| substance | target | recorded-value |
| --- | --- | --- |
| RAG7-693: saRNA duplex; sense GGUCCUAUGCAUCCUCAUCTT (SEQ ID NO: 98), antisense GAUGAGGAUGCAUAGGACCTT (SEQ ID NO: 262) (sugars from the 5' end r19 d2, backbone not given here) | LHPP gene | 1.22 |
| RAG7-187: saRNA duplex; sense UCUUGUCUCAAUUUGCCUUTT (SEQ ID NO: 123), antisense AAGGCAAAUUGAGACAAGATT (SEQ ID NO: 287) (sugars from the 5' end r19 d2, backbone not given here) | LHPP gene | 1.17 |
| RAG7-698: saRNA duplex; sense GCCCAGGUCCUAUGCAUCCTT (SEQ ID NO: 118), antisense GGAUGCAUAGGACCUGGGCTT (SEQ ID NO: 282) (sugars from the 5' end r19 d2, backbone not given here) | LHPP gene | 1.18 |
| RAG7-837: saRNA duplex; sense AGGGGCCAUUGAGGAAACUTT (SEQ ID NO: 109), antisense AGUUUCCUCAAUGGCCCCUTT (SEQ ID NO: 273) (sugars from the 5' end r19 d2, backbone not given here) | LHPP gene | 1.20 |
| RAG7-33: saRNA duplex; sense UUUGCACCCGGUCUUCUUGTT (SEQ ID NO: 119), antisense CAAGAAGACCGGGUGCAAATT (SEQ ID NO: 283) (sugars from the 5' end r19 d2, backbone not given here) | LHPP gene | 1.18 |
| RAG7-780: saRNA duplex; sense AAUGUAGCAUCGAGUGGUATT (SEQ ID NO: 142), antisense UACCACUCGAUGCUACAUUTT (SEQ ID NO: 306) (sugars from the 5' end r19 d2, backbone not given here) | LHPP gene | 1.14 |
| RAG7-186: saRNA duplex; sense CUUGUCUCAAUUUGCCUUUTT (SEQ ID NO: 78), antisense AAAGGCAAAUUGAGACAAGTT (SEQ ID NO: 242) (sugars from the 5' end r19 d2, backbone not given here) | LHPP gene | 1.28 |
| RAG7-128: saRNA duplex; sense UUGUCCGCUGAUCUCCUGGTT (SEQ ID NO: 111), antisense CCAGGAGAUCAGCGGACAATT (SEQ ID NO: 275) (sugars from the 5' end r19 d2, backbone not given here) | LHPP gene | 1.20 |

Where these numbers come from: patent US20220096516A1
